These entries and their values trace back to ChEMBL document CHEMBL3124933.

Assay: Volume of distribution at steady state in C57B6 mouse at 4 umol/kg, iv
Format: ADME, organism-based
Settings: in vivo, read-out: Vdss
Measurement Label: Vd (L/kg)
// note: answer is a bare numeric in L/kg

INPUT: Give its Vd value. Item: `N#CC1(COc2nc(C3CC3)c(C(=O)N[C@H]3C4CC5CC3C[C@](O)(C5)C4)s2)CC1`
OUTPUT: 1

* * *

Assay: AUC in C57B6 mouse at 14.3 umol/kg, po
Format: ADME, organism-based, Plasma
Settings: whole blood
Measurement Label: AUC (µM·h)
Numeric answer only, unit µM·h assumed.

INPUT: Which measured AUC value corresponds to `N#CC1(COc2nc(C3CC3)c(C(=O)N[C@H]3C4CC5CC3C[C@](O)(C5)C4)s2)CC1` ?
OUTPUT: 12

* * *

Answer each item with its documented logD.
Assay: physchem
Conditions: buffer, pH 7.4
Write no unit; give the number alone.

INPUT: Name the recorded logD for `O=C(N[C@H]1C2CC3CC1C[C@](O)(C3)C2)c1sc(OC2CCOCC2)nc1C1CC1` .
OUTPUT: 2.7

INPUT: Now try `O=C(N[C@H]1C2CC3CC1C[C@](O)(C3)C2)c1sc(OCC2CC2)nc1C1CC1` .
OUTPUT: 3.6

INPUT: Try `Cc1nc([C@@H]2CCCO2)c(C(=O)N[C@H]2C3CC4CC2C[C@](O)(C4)C3)s1` next.
OUTPUT: 1.8

INPUT: Another compound: `Cc1nc([C@H]2CCCO2)c(C(=O)N[C@H]2C3CC4CC2C[C@](O)(C4)C3)s1`
OUTPUT: 1.8

INPUT: Input CS(=O)(=O)Cc1nc([C@H]2CCCO2)c(C(=O)NC2C3CC4CC2CC(O)(C4)C3)s1 (stereo partly specified)
OUTPUT: 0.4

INPUT: Would you mind doing C[C@@H]1CN(c2ncc(C(=O)NC3C4CC5CC3CC(O)(C5)C4)c(C3CCCC3)n2)C[C@H](C)O1 (stereo partly specified) as well?
OUTPUT: 3.6

INPUT: Can you check `CC(C)Oc1nc(C2CC2)c(C(=O)N[C@H]2C3CC4CC2C[C@](O)(C4)C3)s1` next?
OUTPUT: 3.4

INPUT: Same read-out for `COc1nc([C@H]2CCCO2)c(C(=O)N[C@H]2C3CC4CC2C[C@](O)(C4)C3)s1` ?
OUTPUT: 2.3

INPUT: One more compound: `CCOc1nc(C2CC2)c(C(=O)N[C@H]2C3CC4CC2C[C@](O)(C4)C3)s1`
OUTPUT: 2.9

INPUT: How about this compound: `Cc1nc(C)c(C(=O)N[C@H]2C3CC4CC2C[C@](O)(C4)C3)s1`
OUTPUT: 1.3

INPUT: What do you get for `CCCSc1nc(C)sc1C(=O)N[C@H]1C2CC3CC1C[C@](O)(C3)C2` ?
OUTPUT: 3.1

INPUT: What about `COCc1nc([C@H]2CCCO2)c(C(=O)N[C@H]2C3CC4CC2C[C@](O)(C4)C3)s1` ?
OUTPUT: 1.9

INPUT: Here is the next compound: COc1ncsc1C(=O)NC1C2CC3CC1CC(O)(C3)C2 (stereo unspecified)
OUTPUT: 1.7

INPUT: Continue with `Cc1nc(OC2COC2)c(C(=O)N[C@H]2C3CC4CC2C[C@](O)(C4)C3)s1`
OUTPUT: 1.5

INPUT: Then Cc1nc(OC2CCC2)c(C(=O)NC2C3CC4CC2CC(O)(C4)C3)s1 (stereo unspecified) ?
OUTPUT: 3.2

INPUT: Next compound up: `Cc1nc(OCC(F)(F)F)c(C(=O)N[C@H]2C3CC4CC2C[C@](O)(C4)C3)s1`
OUTPUT: 3.1

INPUT: Also check `COCCc1nc([C@H]2CCCO2)c(C(=O)N[C@H]2C3CC4CC2C[C@](O)(C4)C3)s1`
OUTPUT: 1.8

INPUT: # iterate: `O=C(N[C@H]1C2CC3CC1C[C@](O)(C3)C2)c1sc(OCCO)nc1C1CC1`
OUTPUT: 1.6

INPUT: # iterate: `N#CC1(COc2nc(C3CC3)c(C(=O)N[C@H]3C4CC5CC3C[C@](O)(C5)C4)s2)CC1`
OUTPUT: 2.6

INPUT: Next record, please: `CNc1nc([C@H]2CCCO2)c(C(=O)N[C@H]2C3CC4CC2C[C@](O)(C4)C3)s1`
OUTPUT: 2.1

INPUT: Next compound up: N#CC1CC(Oc2nc([C@H]3CCCO3)c(C(=O)NC3C4CC5CC3CC(O)(C5)C4)s2)C1 (stereo partly specified)
OUTPUT: 2.4
